# assay notes: Colorimetric alkylation rate constant assay with TNB^2− as non-specific thiol
# Assay type: physicochemical
# experimental parameters: Replicate 2, 1265 sec, [B]0=250; in µM
Hi there, I'd appreciate the recorded remaining [B] for every entry that follows.
Please respond with just the number, no unit label.

Entry O=C(CCl)Nc1ccc(F)cc1 ; remaining [B] = 243.586

Summary for this molecule, O=C(CCl)N1CCOCC1 : remaining [B] is 239.371

Query COc1cc2sc(C(=O)CCC(=O)O)cc2cc1NC(=O)CCl [Compound E2] yields remaining [B] of 242.446

Per the record, O=C(CCl)Nc1ccccc1 has remaining [B] of 244.09

Reported remaining [B] ( O=C(CCl)Nc1ccccc1C(=O)O ) = 245.218

Lookup result for C=CS(=O)(=O)Nc1cc2cc(C(=O)CCC(=O)O)sc2cc1OC [Compound E1] ; measured remaining [B]: 246.258
